Values compiled from patent US20200062863A1.

Target: T1, human Factor XIIa-beta (human, UniProt P00748 354-615, limits assumed)
T1 construct: Bought from Enzyme Research Laboratories; also called FXIIa beta; FXIIa-beta
T1 sequence: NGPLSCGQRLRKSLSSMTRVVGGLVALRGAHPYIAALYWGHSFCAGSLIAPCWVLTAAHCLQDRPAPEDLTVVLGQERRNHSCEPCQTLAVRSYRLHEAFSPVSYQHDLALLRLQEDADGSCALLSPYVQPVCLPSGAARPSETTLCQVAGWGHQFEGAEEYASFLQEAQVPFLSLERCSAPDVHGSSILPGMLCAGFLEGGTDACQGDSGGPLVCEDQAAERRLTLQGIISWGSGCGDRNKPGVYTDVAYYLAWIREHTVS
Assay: SPR (Biacore), purified IgG4 captured on anti-human IgG, FXIIa beta 0-40 nM, 1:1 fit, 25 C
measure name: kon (M⁻¹ s⁻¹)
Provide the reading as a plain figure in M⁻¹ s⁻¹.

{"binder": "VR24 (antibody, V domains shown) VH: EVQLLESGGGLVQPGGSLRLSCAASGFTFSKYIMQWVRQAPGKGLEWVSGIRPSGGTTVYADSVKGRFTISRDNSKNTLYLQMNSLRAEDTAVYYCARALPRSGYLISPHYYYYALDVWGQGTTVTVSS VL: QSVLTQPPSASGTPGQRVTISCSGSSEMTVHHYVYWYQQLPGTAPKLLIYSNNQRPSGVPDRFSGSKSGTSASLAISGLRSEDEADYYCAAWDASLRGVFGGGTKLTVLG", "units text": "M⁻¹ s⁻¹", "kon": 240000}

Proceed to the following item.
Incoming: Which measured kon value corresponds to VR112 (antibody, V domains shown) VH: EVQLLESGGGLVQPGGSLRLSCAASGFTFSKYIMQWVRQAPGKGLEWVSGINVPVQGTVYADSVKGRFTISRDNSKNTLYLQMNSLRAEDTAVYYCARALPRSGYLISPHYYYYALDVWGQGTTVTVSS VL: QSELTQPPSASGTPGQRVTISCSGSSSNIGRNYVYWYQQVPGTAPKLLIYSNNQRPSGVPDRFSGSKSGTSASLVISGLRSEDEADYYCAAWDASLRGVFGGGTKLTVLG ?
Outgoing: 250000
